Molecular target: T1, DGI-2 polypeptide (UniProt Q15004 1-111, limits assumed)
T1 construct: Soluble recombinant protein coated at 500 ng/well; vector tag of pIVEX2.3-MCS not described for this construct; also called KIAA0101
T1 sequence (looked up): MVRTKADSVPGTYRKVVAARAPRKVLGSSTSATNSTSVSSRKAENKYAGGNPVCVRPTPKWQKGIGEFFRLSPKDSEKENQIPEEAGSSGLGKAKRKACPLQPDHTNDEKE
Test: phage ELISA
Procedure: For analysis of individual target binders, colonies were picked and phage prepared as described above using helper phage, M13KO7. Ninety-six-well microtiter plates were coated with 500 ng/well of specific target protein, 500 ng/well lactate dehydrogenase (LDH) irrelevant or non-specific target, 500 ng/well of positive control antibody raised against ETAG, and negative control of non-fat milk powder-PBS 2% at 4° C. overnight. […] Plates were analyzed at 405 nm. […]
# label = Fulfilled if DGI-2 (OD) >= 3 OD else Not fulfilled

For orientation, consider the following solved cases.
BINDER | ANSWER_LABEL
SAFGCPLPRALGGGGARFYAAAAGAPVPYPDPLEPRP [DGI-2-20F-PP-E11] | Not fulfilled
GGGRESWGGGWFMGWGSGAGAAAGAPVPYPDPLEPRP [DGI-2-20R-3-A6] | Fulfilled
TFTRDVAGPAVSFVRLHSWNAAAGAPVPYPDPLEPRP [DGI-2-20F-PP-A9] | Not fulfilled
RVSYEMLGRRRRSMHGSSMRAAAGAPVPYPDPLEPRP [DGI-2-20F-PP-A4] | Not fulfilled
VTGTRFRGFAVACVRMGTWHAAAGAPVPYPDPLEPRP [DGI-2-20F-PP-F2] | Not fulfilled
VVHTRAWGSWAYGFVLRNRGAAAGAPVPYPDPLEPRP [DGI-2-20F-PP-F10] | Fulfilled
GRWDGWEVCGIWGADDCASGAAAGAPVPYPDPLEPRP [DGI-2-20R-4-H1] | Fulfilled
LFRFSGTGMASLPCVGWHLVAAAGAPVPYPDPLEPRP [DGI-2-20F-PP-B6] | Not fulfilled
DGI-2-40F-3-C424 (peptide) peptide: TVKFQGVVQERSRIAGFRYCGDHAVSWGLAGCPALRDKLQAAAGAPVPYPDPLEPRP | Fulfilled
DRSRAPLCADKSGRWQRYRRAAAGAPVPYPDPLEPRP [DGI-2-20F-PP-C10] | Not fulfilled

Decide: DGI-2 (OD) of SRGMAEAQFSAWPVLAVFPLAAAGAPVPYPDPLEPRP [DGI-2-20F-PP-H8] >= 3 OD?
Not fulfilled

Follow-up entry: FGSTAYADMLSQFRKFAMNISAAAGAPVPYPDPLEPRP [DGI-2-20F-PP-E1]
Not fulfilled

Item: RGVNSDMPRLYICRADGQGQAAAGAPVPYPDPLEPRP [DGI-2-20F-PP-H6]
Not fulfilled

How about this binder: SLECWAMPGMVVRLVGCDGPAAAGAPVPYPDPLEPRP [DGI-2-20R-4-H112]
Fulfilled
